// provenance: patent US10941182

- system-name: T1, human APJ receptor (human, UniProt P35414 1-380)
- T1 sequence (looked up): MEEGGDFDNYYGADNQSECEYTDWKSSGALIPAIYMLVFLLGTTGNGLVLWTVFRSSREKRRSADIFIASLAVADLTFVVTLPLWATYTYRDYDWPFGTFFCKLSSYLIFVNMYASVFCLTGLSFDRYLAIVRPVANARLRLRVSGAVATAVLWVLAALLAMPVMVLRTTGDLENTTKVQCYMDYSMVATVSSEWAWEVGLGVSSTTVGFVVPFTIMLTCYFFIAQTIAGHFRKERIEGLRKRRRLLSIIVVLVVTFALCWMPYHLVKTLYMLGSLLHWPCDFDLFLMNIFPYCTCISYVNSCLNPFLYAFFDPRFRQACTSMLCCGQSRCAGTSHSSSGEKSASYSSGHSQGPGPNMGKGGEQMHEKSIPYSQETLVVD
- experiment-summary: cell-based or functional assay
Starred links: 1 amine or outer side, 2 acyl side, 3 side chain; linkers in the order of their positions; H or OH if unused. Non-standard residues stand in square brackets, D forms with d. Primed or numbered codes have the meaning given here. No end group written: not given here. *: point of attachment. Pra′ = its azide, alkyne or alkene has reacted where a group follows in round brackets; dBip = N[C@H](Cc1ccc(-c2ccccc2)cc1)C(=O)O; Oic = O=C(O)[C@@H]1C[C@@H]2CCCC[C@@H]2N1; Phe(4-Cl) = N[C@@H](Cc1ccc(Cl)cc1)C(=O)O; Heptadecanoyl = CCCCCCCCCCCCCCCCC(=O)*; Phe(4-I) = N[C@@H](Cc1ccc(I)cc1)C(=O)O; γGlu = O=C(O)[C@H](CCC(=O)[*:2])N[*:1]; NMeR = CN[C@@H](CCCNC(=N)N)C(=O)O; Tridecanoyl = CCCCCCCCCCCCC(=O)*; hArg = N=C(N)NCCCC[C@H](N)C(=O)O; Cha = N[C@@H](CC1CCCCC1)C(=O)O; NMeL = CN[C@@H](CC(C)C)C(=O)O; Nle = CCCC[C@H](N)C(=O)O; Orn = NCCC[C@H](N)C(=O)O; Pip′ = not defined here; AEEA = NCCOCCOCC(=O)O; Nlys = NCCCCNCC(=O)O; BLeu = β-leucine; βAla = NCCC(=O)O
Could you please report measured EC50 Human APJ Receptor for the items listed next?
Report only the number, with the unit nM understood.

Input [Orn]F[hArg][hArg]Q[NMeR]P[hArg][Cha]SHKG[Oic][Nle]P[Phe(4-Cl)] [apelin polypeptide SEQ ID NO: 671] . Output EC50 Human APJ Receptor: 0.162

Input [Orn]F[NMeR][hArg]Q[hArg]P[hArg][Cha]SHKG[Oic][Nle]P[Phe(4-Cl)] [apelin polypeptide SEQ ID NO: 669] . Output EC50 Human APJ Receptor: 5.3

Input [Orn]F[hArg][hArg]Q[hArg]P[hArg][Cha]S[βAla]KG[Oic][Nle]P[Phe(4-Cl)] [apelin polypeptide SEQ ID NO: 700] . Output EC50 Human APJ Receptor: 0.949

Input Ac-[Pra′](20K‑mPEGReg)[Orn]F[hArg][hArg]QRP[hArg][NMeL]SHKG[Oic][Phe(4-I)]P[dBip]-OH [apelin polypeptide SEQ ID NO: 107] . Output EC50 Human APJ Receptor: 10.5

Input [Orn]F[hArg][hArg]Q[hArg]P[hArg][Cha]SHKG[Oic][Nle]P[Phe(4-Cl)] [apelin polypeptide SEQ ID NO: 714] . Output EC50 Human APJ Receptor: 0.168

Input Ac-[Orn]F[hArg][hArg]Q[hArg]P[hArg][Cha]SH[Nlys]G[Oic][Nle]P[Phe(4-Cl)]-OH [apelin polypeptide SEQ ID NO: 32] . Output EC50 Human APJ Receptor: 0.25

Input Tridecanoyl-[γGlu][AEEA][AEEA][BLeu][hArg]P[dR][Cha]SHKG[Oic][Nle]P[Phe(4-Cl)]-OH [apelin polypeptide SEQ ID NO: 278] . Output EC50 Human APJ Receptor: 10.1

Input Heptadecanoyl-[γGlu][AEEA][AEEA]Q[dR]P[NMeR][Cha]SHKG[Oic][Nle][Pip′][Phe(4-Cl)]-OH [apelin polypeptide SEQ ID NO: 234] . Output EC50 Human APJ Receptor: 6.05

Input [Orn]F[hArg][hArg]Q[hArg]P[hArg][Cha]SHK[βAla][Oic][Nle]P[Phe(4-Cl)] [apelin polypeptide SEQ ID NO: 704] . Output EC50 Human APJ Receptor: 0.963

Input Tridecanoyl-[γGlu][AEEA][AEEA][dQ][hArg]P[NMeR][BLeu]SHKG[Oic][Nle]P[Phe(4-Cl)]-OH [apelin polypeptide SEQ ID NO: 275] . Output EC50 Human APJ Receptor: 3.43
